For each of the binders below, state its pEC50.
- Subject of test: T1, Human uPAR-His recombinant protein (human, UniProt Q03405 23-305)
- T1 construct: also called recombinant human uPAR; CD87; source: bought: R&D system
- Test method notes: ELISA; uPAR-His coated at 50 ng/well at 4°C overnight; 3-fold serially diluted binders 1 hour at 37°C; VH detected by anti-FLAG M2-HRP, VH-Fc or DbTE by HRP goat anti-human IgG1 Fc
- Condition info: both partners purified
pEC50 is a log-scale quantity: -log10 of the concentration expressed in molar.

**Q:** // pEC50 lookup, key: VH 3 (VHH, Human single VH domain antibody (not a camelid VHH); Monomeric by SEC; also called clone 3; anti-uPAR VH 3; source: E.coli TopF expression system, purified on Ni-NTA columns) VHH: EVQLVESGGGLVQPGGSLRLSCAASGFTFSRYWMSWVRQAPGKALEWIGEINHSGSTNYNPSLKSLVTISRDNSKNTLYLQMNSLRAEDTATYYCARSLVPALSYYYYYGMDVWGQGTTVTVSS
**A:** 7.92

**Q:** // pEC50 lookup, key: VH-Fc 115 (Fc fusion, human, VH cloned into the pcDNA-IgG1 Fc vector; source: Expi293, transiently transfected, purified by protein A resin; not shown: Fc (human IgG1), C-terminal, kept) VH: EVQLVESGGGLVQPGGSLRLSCKGSGFTFGDYAIGWVRQAPGQRLEWIGWINTNSGSPKYAQGFTGRFTISRDNSKNTLYLQMNSLRAEDTAVYYCATDVVVPWGQGSQVTVSS
**A:** 8.18

**Q:** // pEC50 lookup, key: VH 115 (VHH, Human single VH domain antibody (not a camelid VHH); source: E.coli TopF expression system, purified on Ni-NTA columns) VHH: EVQLVESGGGLVQPGGSLRLSCKGSGFTFGDYAIGWVRQAPGQRLEWIGWINTNSGSPKYAQGFTGRFTISRDNSKNTLYLQMNSLRAEDTAVYYCATDVVVPWGQGSQVTVSS
**A:** 7.47

**Q:** // pEC50 lookup, key: VH-Fc 3 (Fc fusion, human, VH 3 domain, as m1; VH cloned into the pcDNA-IgG1 Fc vector; source: Expi293, transiently transfected, purified by protein A resin; not shown: Fc (human IgG1), C-terminal, kept) VH: EVQLVESGGGLVQPGGSLRLSCAASGFTFSRYWMSWVRQAPGKALEWIGEINHSGSTNYNPSLKSLVTISRDNSKNTLYLQMNSLRAEDTATYYCARSLVPALSYYYYYGMDVWGQGTTVTVSS
**A:** 7.19
